target: trypsin; assay: TRF, 0.6 ug/mL Fab on trypsin
Hi there, I'd appreciate the recorded TRF signal for every entry that follows.
Answers are plain numbers.

# annotated cases, reported TRF signal shown
KB_C07 Fab (Fab, V domains shown) VH: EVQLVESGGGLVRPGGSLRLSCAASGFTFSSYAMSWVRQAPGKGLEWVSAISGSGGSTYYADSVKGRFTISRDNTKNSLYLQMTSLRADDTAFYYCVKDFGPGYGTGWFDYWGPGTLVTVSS VL: AVNWYQQLPGKAPKLLIYAAVGCPRILMRCKQDSDCLAGCVCGPNGFCGSASGVSDRFSGSKSGTSASLAISGLRSEDEADYYCASWDDSLRGYVFGTGTKVTVLG; 153000
KB_A02 Fab (Fab, V domains shown) VH: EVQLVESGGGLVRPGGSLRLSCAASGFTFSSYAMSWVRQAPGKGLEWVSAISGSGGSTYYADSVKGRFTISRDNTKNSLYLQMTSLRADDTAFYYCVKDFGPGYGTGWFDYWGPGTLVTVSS VL: AVNWYQQLPGKAPKLLIYAAAKCPRILMRCKQDSDCLAGCVCGPNGFCGGASGVSDRFSGSIDSSSNSASLTISGLKPEDEGDYYCQSYDSSNRWVFGGGTKVTVLG; 93800
KB_A12 Fab (Fab, V domains shown) VH: EVQLVESGGGLVRPGGSLRLSCAASGFTFSSYAMSWVRQAPGKGLEWVSAISGSGGSTYYADSVKGRFTISRDNTKNSLYLQMTSLRADDTAFYYCVDFGPGYGTGWFDYWGPGTLVTVSS VL: AVNWYQQLPGKAPKLLIYAAGRCPRILMRCKQDSDCLAGCVCGPNGFCGANSGVSDRFSAAKSGTSASLAINGLRSEDEADYYCAAWDDSLNGYVFGTGTKLTVLG; 102000
KB_B01 Fab (Fab, V domains shown) VH: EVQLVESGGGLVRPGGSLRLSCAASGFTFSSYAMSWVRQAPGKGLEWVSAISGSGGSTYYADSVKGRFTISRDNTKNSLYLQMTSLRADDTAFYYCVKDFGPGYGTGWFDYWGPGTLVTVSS VL: AVNWYQQLPGKAPKLLIYAAAGCPRILMRCKQDSDCLAGCVCGPNGFCGTRSGVSDRFSGSKSGTSASLAISGLRSEDEADYYCAAWDDSLRAYVFGTGTKLTVLG; 54800

Now for another entry.
Exercise: Could you tell me which TRF signal is on file for KB_C09 Fab (Fab, V domains shown) VH: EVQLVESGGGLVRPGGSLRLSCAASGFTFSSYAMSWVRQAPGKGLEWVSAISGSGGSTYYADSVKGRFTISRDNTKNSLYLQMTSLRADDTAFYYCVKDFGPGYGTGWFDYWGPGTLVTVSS VL: AVNWYQQLPGKAPKLLIYAAGRCPRILMRCKQDSDCLAGCVCGPNGFCGGGSGVPDRFSGSIDSSSNSASLTISGLRAEDEADYYCQSYDSSNHWVFGGGTKLTVLG ?
Key: 46800

This collection of values is drawn from patent US20230331827A1.
